assayedTarget: Ubiquitin-conjugating enzyme E2 N (Homo sapiens);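 note: Dose-response confirmation in a TR-FRET assay detecting UBC13-driven polyubiquitin chain formation, inhibition measured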
Sequence (P61088 whole entry): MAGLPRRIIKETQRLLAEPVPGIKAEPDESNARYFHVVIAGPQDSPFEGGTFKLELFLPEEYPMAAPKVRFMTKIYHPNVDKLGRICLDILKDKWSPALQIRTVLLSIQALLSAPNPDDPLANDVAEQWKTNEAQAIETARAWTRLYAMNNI
Type: functional
Active and inactive are the calls of the source.
Can you answer with just one of these options? label 1 = active, label 0 = inactive

Solved entries:
> print(dat)
                                   molecule  grouplabel
1  CNC(=O)c1ccsc1NC(=O)C1CCCN1S(=O)(=O)c1cccs1 (stereo not drawn)     label 1
2  CCCCCCCCCCOC(=O)C[n+]1c(COc2ccccc2C)n(C)c2ccccc21     label 0
3  CCCCN(CC)CCCNC(=O)c1cc2c(=O)n(CC)c3ccccc3c2s1     label 0
4          CCOC(=O)c1c(C)c2c(n1C)CCC/C2=N\O     label 1
5  O=C(CSc1cc(Cl)ccc1Cl)NCC(=O)Nc1ccc(F)c(F)c1F     label 1

Answer briefly: the call reported for CC(=O)Nc1ccc(S(=O)(=O)NNC(=O)C(=O)NNc2ccccn2)cc1 in this assay.
label 0

Answer briefly: the call reported for CCn1c(=O)cc(SCC(=O)NCCCN2CCN(c3ccc(F)cc3)CC2)c2ccccc21 in this assay.
label 1

Answer briefly: the call reported for COc1ccc(-c2sc3cc4c(cc3c2C#CC2(N)CCCCC2)OCO4)cc1 in this assay.
label 0
